- measurement target: progesterone receptor (PR) (Homo sapiens, UniProt P06401);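 further: radioligand binding measured with cytosol preparations containing the human progesterone receptor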
- Sequence (P06401 1-933): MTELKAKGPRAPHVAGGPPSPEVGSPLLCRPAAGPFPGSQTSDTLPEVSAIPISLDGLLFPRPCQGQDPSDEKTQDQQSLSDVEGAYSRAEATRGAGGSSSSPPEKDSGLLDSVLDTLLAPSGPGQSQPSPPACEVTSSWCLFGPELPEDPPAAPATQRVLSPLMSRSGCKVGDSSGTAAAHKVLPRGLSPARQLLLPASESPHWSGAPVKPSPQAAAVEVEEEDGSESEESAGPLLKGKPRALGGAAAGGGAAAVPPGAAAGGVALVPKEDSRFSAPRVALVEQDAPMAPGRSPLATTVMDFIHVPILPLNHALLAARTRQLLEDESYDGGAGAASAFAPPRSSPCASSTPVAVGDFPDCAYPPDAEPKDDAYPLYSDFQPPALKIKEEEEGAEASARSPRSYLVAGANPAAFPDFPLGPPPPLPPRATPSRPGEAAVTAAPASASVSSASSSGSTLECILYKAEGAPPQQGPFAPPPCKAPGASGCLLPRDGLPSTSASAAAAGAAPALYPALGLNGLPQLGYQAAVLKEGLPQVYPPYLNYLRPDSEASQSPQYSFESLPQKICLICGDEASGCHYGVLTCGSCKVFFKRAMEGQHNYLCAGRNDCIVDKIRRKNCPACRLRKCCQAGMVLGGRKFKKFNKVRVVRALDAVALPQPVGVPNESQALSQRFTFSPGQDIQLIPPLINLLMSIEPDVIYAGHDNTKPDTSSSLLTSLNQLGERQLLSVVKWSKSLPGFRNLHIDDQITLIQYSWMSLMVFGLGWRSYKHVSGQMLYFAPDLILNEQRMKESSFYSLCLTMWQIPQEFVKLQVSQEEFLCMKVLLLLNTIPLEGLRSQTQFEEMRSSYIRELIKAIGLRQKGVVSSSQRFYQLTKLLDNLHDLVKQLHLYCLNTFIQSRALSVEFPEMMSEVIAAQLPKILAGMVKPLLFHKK
pIC50: −log10 of the molar value.
compounds and their reported pIC50

1) CCOC(=O)/C=C/c1c(NS(C)(=O)=O)cccc1N(Cc1ccccc1)Cc1ccccc1 | < 5.00
2) Cc1c(NS(C)(=O)=O)cccc1N(Cc1ccccc1)Cc1ccc(OCC=CBr)cc1 | < 5.00

Input line: # query: pIC50 of entry Cc1c(NS(C)(=O)=O)cccc1N(Cc1ccc(OCc2ccccc2)cc1)Cc1ccc(F)cc1F
Output line: < 5.00
